From: patent US20240287046A1

tgt: human NTSR-1 (Homo sapiens (Human))
Sequence (P30989 whole entry): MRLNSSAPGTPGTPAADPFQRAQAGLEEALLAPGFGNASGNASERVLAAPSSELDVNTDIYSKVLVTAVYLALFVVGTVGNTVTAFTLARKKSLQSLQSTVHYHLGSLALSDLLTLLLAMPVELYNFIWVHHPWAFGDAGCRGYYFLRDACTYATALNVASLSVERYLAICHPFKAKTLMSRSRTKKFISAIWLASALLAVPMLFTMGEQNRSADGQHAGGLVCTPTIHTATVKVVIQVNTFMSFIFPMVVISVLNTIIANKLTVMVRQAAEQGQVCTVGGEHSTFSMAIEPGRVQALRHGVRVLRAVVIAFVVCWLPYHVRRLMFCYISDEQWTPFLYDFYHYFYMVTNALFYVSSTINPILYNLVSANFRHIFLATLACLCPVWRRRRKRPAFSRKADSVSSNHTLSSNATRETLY
method: radioligand competitive binding assay using ^177Lu labeled C-1 as reference radioligand
conditionParameters: Mean IC50 of C-1/Mean IC50 of the test compound
measurementKind: Relative Binding Affinity

Past entries and their recorded results:
COc1cccc(OC)c1-c1cc(C(=O)NC2(C(=O)O)C3CC4CC(C3)CC2C4)nn1-c1ccc(N(CCCN(C)C)C(=O)COCCOCCNC(=O)CN2CCN(CC(=O)O)CCN(CC(=O)O)CCN(CC(=O)O)CC2)cc1C(C)C (stereo not drawn) [Compound I-6]: 3.1
COc1cccc(OC)c1-c1cc(C(=O)NC2(C(=O)O)C3CC4CC(C3)CC2C4)nn1-c1ccc(N(C)CCCN(C)CCCN(C)C(=O)COCCOCCNC(=O)CN2CCN(CC(=O)O)CCN(CC(=O)O)CCN(CC(=O)O)CC2)cc1C(C)C (stereo not drawn) [Compound I-4]: 538.2
COc1cccc(OC)c1-c1cc(C(=O)NC2(C(=O)O)C3CC4CC(C3)CC2C4)nn1-c1ccc(NCCCN(C)CCCNC(=O)COCCOCCNC(=O)CN2CCN(CC(=O)O)CCN(CC(=O)O)CCN(CC(=O)O)CC2)cc1C(C)C (stereo not drawn) [Compound I-3]: 519.8

[1] COc1cccc(OC)c1-c1cc(C(=O)NC2(C(=O)O)C3CC4CC(C3)CC2C4)nn1-c1ccc(NC(=O)COCCOCCNC(=O)CN2CCN(CC(=O)O)CCN(CC(=O)O)CCN(CC(=O)O)CC2)cc1C(C)C (stereo not drawn) [Compound I-12]
[2] COc1cccc(OC)c1-c1cc(C(=O)NC2(C(=O)O)C3CC4CC(C3)CC2C4)nn1-c1ccc(N(CCCN(C)C)C(C)=O)cc1C(C)C (stereo not drawn) [Compound C-4, reference compound]
[3] COc1cccc(OC)c1-c1cc(C(=O)NC2(C(=O)O)C3CC4CC(C3)CC2C4)nn1-c1ccc(NCCCCN(C)C)cc1C(C)C (stereo not drawn) [II-2]
QUERY: Please give the order of these compounds when sorted by Relative Binding Affinity, largest value leading. Labels, requested order.
RESULT: 3, 2, 1

###

tgt: human NTSR-1 (Homo sapiens (Human))
method: FLIPR assay, inhibition of Neurotensin-induced intracellular-calcium mobilization
Format: cell-based
conditionParameters: HEK293 cells stably expressing human NTSR-1, mean; read-out: IC50 (nM) in FLIPR Assays
measurementKind: IC50 (nM)

COc1cccc(OC)c1-c1cc(C(=O)NC2(C(=O)O)C3CC4CC(C3)CC2C4)nn1-c1ccc(N(CCCN(C)C)C(=O)COCCOCCNC(=O)CN2CCN(CC(=O)O)CCN(CC(=O)O)CCN(CC(=O)O)CC2)cc1C(C)C (stereo not shown) [Compound I-6]: 16.2
COc1cccc(OC)c1-c1cc(C(=O)NC2(C(=O)O)C3CC4CC(C3)CC2C4)nn1-c1ccc(NC(=O)CCCN(C)CCCN(C)C(=O)CN2CCN(CC(=O)O)CCN(CC(=O)O)CCN(CC(=O)O)CC2)cc1C(C)C (stereo not shown) [Compound I-5]: 26.9

[A] COc1cccc(OC)c1-c1cc(C(=O)NC2(C(=O)O)C3CC4CC(C3)CC2C4)nn1-c1ccc(C(=O)N(C)CCCN(C)CCCN(C)C(=O)CN2CCN(CC(=O)O)CCN(CC(=O)O)CCN(CC(=O)O)CC2)cc1C(C)C (stereo not shown) [Compound C-2, reference compound]
[B] COc1cccc(OC)c1-c1cc(C(=O)NC2(C(=O)O)C3CC4CC(C3)CC2C4)nn1-c1ccc(OCCCN(C)CCCN(C)C(=O)CN2CCN(CC(=O)O)CCN(CC(=O)O)CCN(CC(=O)O)CC2)cc1C(C)C (stereo not shown) [Compound I-7]
QUERY: Min IC50? A | B Return value: the label identifying the chosen record.
RESULT: B

###

Tested on: ASPC-1 tumor-bearing mice
method: Biodistribution of radionuclide labeled complexes in ASPC-1 tumor-bearing mice
Type: in vivo, BALB/c nude mice
conditionParameters: Blood, 72 h
measurementKind: % ID/g (72 h) Blood (% ID/g)

COc1cccc(OC)c1-c1cc(C(=O)NC2(C(=O)O)C3CC4CC(C3)CC2C4)nn1-c1ccc(N(C)CCCN(C)CCCN(C)C(=O)CN2CCN(CC(=O)[O-])CCN(CC(=O)[O-])CCN(CC(=O)[O-])CC2)cc1C(C)C.[177Lu+3] (stereo not drawn) [^177Lu-I-1]: 0.04
COc1cccc(OC)c1-c1cc(C(=O)NC2(C(=O)O)C3CC4CC(C3)CC2C4)nn1-c1ccc(NCCOCCOCCNC(=O)CN2CCN(CC(=O)[O-])CCN(CC(=O)[O-])CCN(CC(=O)[O-])CC2)cc1C(C)C.[177Lu+3] (stereo not drawn) [^177Lu-I-10]: 0.01
COc1cccc(OC)c1-c1cc(C(=O)NC2(C(=O)O)C3CC4CC(C3)CC2C4)nn1-c1ccc(NC(=O)CCCN(C)CCCN(C)C(=O)CN2CCN(CC(=O)[O-])CCN(CC(=O)[O-])CCN(CC(=O)[O-])CC2)cc1C(C)C.[177Lu+3] (stereo not drawn) [^177Lu-I-5]: 0.02

[P] COc1cccc(OC)c1-c1cc(C(=O)NC2(C(=O)O)C3CC4CC(C3)CC2C4)nn1-c1ccc(OCCCN(C)CCCN(C)C(=O)CN2CCN(CC(=O)[O-])CCN(CC(=O)[O-])CCN(CC(=O)[O-])CC2)cc1C(C)C.[177Lu+3] (stereo not drawn) [^177Lu-I-7]
[Q] COc1cccc(OC)c1-c1cc(C(=O)NC2(C(=O)O)C3CC4CC(C3)CC2C4)nn1-c1ccc(NCCCN(C)CCCNC(=O)CN2CCN(CC(=O)[O-])CCN(CC(=O)[O-])CCN(CC(=O)[O-])CC2)cc1C(C)C.[177Lu+3] (stereo not drawn) [^177Lu-I-2]
QUERY: Among P and Q , which shows a numerically higher % ID/g (72 h) Blood result? // respond with label for picked entry
RESULT: Q

###

Tested on: ASPC-1 tumor-bearing mice
method: Biodistribution of radionuclide labeled complexes in ASPC-1 tumor-bearing mice
Format: in vivo, BALB/c nude mice
conditionParameters: Muscle, 4 h
measurementKind: % ID/g (4 h) Muscle (% ID/g)

COc1cccc(OC)c1-c1cc(C(=O)NC2(C(=O)O)C3CC4CC(C3)CC2C4)nn1-c1ccc(C(=O)N(C)CCCN(C)CCCN(C)C(=O)CN2CCN(CC(=O)[O-])CCN(CC(=O)[O-])CCN(CC(=O)[O-])CC2)cc1C(C)C.[177Lu+3] (stereo not drawn) [^177Lu-C-2, reference compound]: 0.31

[A] COc1cccc(OC)c1-c1cc(C(=O)NC2(C(=O)O)C3CC4CC(C3)CC2C4)nn1-c1ccc(OCCCN(C)CCCN(C)C(=O)CN2CCN(CC(=O)[O-])CCN(CC(=O)[O-])CCN(CC(=O)[O-])CC2)cc1C(C)C.[177Lu+3] (stereo not drawn) [^177Lu-I-7]
[B] COc1cccc(OC)c1-c1cc(C(=O)NC2(C(=O)O)C3CC4CC(C3)CC2C4)nn1-c1ccc(NCCOCCOCCNC(=O)CN2CCN(CC(=O)[O-])CCN(CC(=O)[O-])CCN(CC(=O)[O-])CC2)cc1C(C)C.[177Lu+3] (stereo not drawn) [^177Lu-I-10]
QUERY: Which value of % ID/g (4 h) Muscle is smaller, the one for A or the one for B ? // caller expects the label of the chosen entry
RESULT: B
(B: 0.13 % ID/g, A: 0.27 % ID/g)

###

Test system: ASPC-1 tumor-bearing mice
method: Biodistribution of radionuclide labeled complexes in ASPC-1 tumor-bearing mice
Assay type: in vivo, BALB/c nude mice
conditionParameters: Lung, 4 h
measurementKind: % ID/g (4 h) Lung (% ID/g)

COc1cccc(OC)c1-c1cc(C(=O)NC2(C(=O)O)C3CC4CC(C3)CC2C4)nn1-c1ccc(NCCCN(C)CCCNC(=O)CN2CCN(CC(=O)[O-])CCN(CC(=O)[O-])CCN(CC(=O)[O-])CC2)cc1C(C)C.[177Lu+3] (stereo not shown) [^177Lu-I-2]: 1.77
COc1cccc(OC)c1-c1cc(C(=O)NC2(C(=O)O)C3CC4CC(C3)CC2C4)nn1-c1ccc(C(=O)N(C)CCCN(C)CCCN(C)C(=O)CN2CCN(CC(=O)[O-])CCN(CC(=O)[O-])CCN(CC(=O)[O-])CC2)cc1C(C)C.[177Lu+3] (stereo not shown) [^177Lu-C-2, reference compound]: 1.92
COc1cccc(OC)c1-c1cc(C(=O)NC2(C(=O)O)C3CC4CC(C3)CC2C4)nn1-c1ccc(SCCCN(C)CCCN(C)C(=O)CN2CCN(CC(=O)[O-])CCN(CC(=O)[O-])CCN(CC(=O)[O-])CC2)cc1C(C)C.[177Lu+3] (stereo not shown) [^177Lu-I-8]: 2.92

[A] COc1cccc(OC)c1-c1cc(C(=O)NC2(C(=O)O)C3CC4CC(C3)CC2C4)nn1-c1ccc(N(C)CCCN(C)CCCN(C)C(=O)CN2CCN(CC(=O)[O-])CCN(CC(=O)[O-])CCN(CC(=O)[O-])CC2)cc1C(C)C.[177Lu+3] (stereo not shown) [^177Lu-I-1]
[B] COc1cccc(OC)c1-c1cc(C(=O)NC2(C(=O)O)C3CC4CC(C3)CC2C4)nn1-c1ccc(OCCCN(C)CCCN(C)C(=O)CN2CCN(CC(=O)[O-])CCN(CC(=O)[O-])CCN(CC(=O)[O-])CC2)cc1C(C)C.[177Lu+3] (stereo not shown) [^177Lu-I-7]
[C] COc1cccc(OC)c1-c1cc(C(=O)NC2(C(=O)O)C3CC4CC(C3)CC2C4)nn1-c1ccc(NC(=O)CCCN(C)CCCN(C)C(=O)CN2CCN(CC(=O)[O-])CCN(CC(=O)[O-])CCN(CC(=O)[O-])CC2)cc1C(C)C.[177Lu+3] (stereo not shown) [^177Lu-I-5]
QUERY: Could you please sort these 3 entries by % ID/g (4 h) Lung from high to low? Rank the items, then write their labels in that order.
RESULT: C, B, A
